Reference for the values: patent US20220142955A1

- Tested on: primary hepatocytes of methylmalonic acidemia patients
- assay.info: Propionyl-CoA and methylmalonyl-CoA from various sources in MMA primary hepatocytes (Examples 4, 5)
- Type: cell-based, human
- assay.conditions: Homo sapiens, Hepatocyte, 3 mM 13C-ILE, read-out: concentration of propionyl-CoA EC50

{"structure.notation": "CCC(C)(C)C(=O)O", "display.unit": "µM", "EC50": 2.04}
{"structure.notation": "CCCC(CCC)C(=O)O", "display.unit": "µM", "EC50": 30.8}

---

- assay.info: clinical
- Set-up: species or system human
- assay.conditions: human, in vivo, 30 mg/kg

{"structure.notation": "CCC(C)(C)C(=O)O", "Cmax / µg/mL": 156}
